Measured values drawn from ChEMBL document CHEMBL1142475 for this set.

- protocol details: Selectivity index, ratio of CC50 for human MT4 cells to EC50 for HIV1 3B
- Assay type: toxicity, cell-based
- run parameters: MT4 cells, read-out: Ratio CC50/EC50
measured property: selectivity ratio

The examples below pair each entry with its known result.
COc1ccc(-c2nnsc2SCC(=O)Nc2ccccc2[N+](=O)[O-])cc1 ≥ 283
O=C1Nc2ccc(Cl)cc2[C@@](C#CC2CC2)(C(F)(F)F)O1 > 1430
O=C(CSc1snnc1-c1ccc(F)cc1F)Nc1ccccc1F 27
CCOC(=O)c1ccc(NC(=O)CSc2snnc2-c2ccccc2)c(Br)c1 ≥ 45
O=C(CSc1snnc1-c1ccc(F)cc1F)Nc1ccccc1Cl 146
CC(C)Nc1cccnc1N1CCN(C(=O)c2cc3cc(NS(C)(=O)=O)ccc3[nH]2)CC1 > 12

Please report selectivity ratio for every entry that follows.
1. COc1ccc(-c2nnsc2SCC(=O)Nc2ccccc2Br)cc1
2. O=C(CSc1snnc1-c1ccc(Cl)cc1Cl)Nc1ccccc1Br
3. CCOC(=O)c1ccc(NC(=O)CSc2snnc2-c2ccc(Cl)cc2Cl)c(Br)c1

Given back:
> 90
≥ 981
> 2300
